assay: Terminal half life in Sprague-Dawley rat at 100 mg/kg/day, po; type: ADME, organism-based; design: route oral; settings: in vivo
measured attribute: half-life (h)
Record the value in h, omitting the unit from your answer.

Ask: Provide one value: measured half-life of O=C(Nc1ccccc1-c1cn2c(CN3CCNCC3)csc2n1)c1cnc2ccccc2n1
Reply: 8.4

###

biological target: NAD-dependent protein deacetylase sirtuin-1 (Homo sapiens); test: Activation of human SIRT1 expressed in Escherichia coli BL21 by mass spectrometry assay
Sequence (Q96EB6 whole entry): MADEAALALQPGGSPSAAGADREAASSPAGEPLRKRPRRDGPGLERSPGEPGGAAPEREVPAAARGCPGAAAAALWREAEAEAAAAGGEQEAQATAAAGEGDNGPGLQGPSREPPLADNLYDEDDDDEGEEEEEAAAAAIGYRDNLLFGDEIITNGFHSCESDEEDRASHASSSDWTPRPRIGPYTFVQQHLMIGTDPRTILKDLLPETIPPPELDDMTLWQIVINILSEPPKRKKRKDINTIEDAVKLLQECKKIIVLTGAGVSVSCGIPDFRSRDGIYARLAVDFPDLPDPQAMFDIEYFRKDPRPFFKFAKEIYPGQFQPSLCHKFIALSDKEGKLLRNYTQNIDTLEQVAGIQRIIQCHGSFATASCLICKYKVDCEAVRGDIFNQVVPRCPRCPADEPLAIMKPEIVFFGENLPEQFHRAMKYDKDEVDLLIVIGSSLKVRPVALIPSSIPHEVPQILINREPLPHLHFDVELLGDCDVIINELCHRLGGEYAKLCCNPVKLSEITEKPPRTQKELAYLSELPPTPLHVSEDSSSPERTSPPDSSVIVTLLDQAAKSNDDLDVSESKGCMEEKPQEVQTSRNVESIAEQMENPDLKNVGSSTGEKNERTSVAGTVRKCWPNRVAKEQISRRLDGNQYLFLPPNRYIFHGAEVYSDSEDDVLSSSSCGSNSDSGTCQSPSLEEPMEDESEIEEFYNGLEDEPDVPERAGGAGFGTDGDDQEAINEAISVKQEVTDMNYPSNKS
measured attribute: EC50 (µM)

[a] COc1cc(C(=O)Nc2ccccc2-c2cn3c(CN4CCNCC4)csc3n2)cc(OC)c1OC
[b] O=C(Nc1ccccc1-c1cn2c(CN3CC[C@@H](O)C3)csc2n1)c1ccc2ccccc2c1
Ask: Quick check, higher EC50 between a and b ? Write down the label attached to your selection.
Reply: a
(a: 2.9 µM, b: 0.36 µM)
